// provenance: patent US11078197B2

Here's what we have: log10(IC50) numbers for ROCK2 (Homo sapiens (Human)).
Hey, these are logged values: log10 of IC50, nM being the unit before logging.

Please state, for each entry, its recorded log10(IC50).
1. Cn1ncc2cc(C(N)=O)c(O[C@H]3C[C@@]4(C[C@H](NC(=O)c5nn(CC(F)F)c6cc(OCC(C)(C)F)ccc56)C4)C3)nc21 (stereo partly drawn) [Example 160]
2. COc1nc(O[C@H]2C[C@@]3(C[C@H](NC(=O)c4cnn5cc(OCC(O)(C(F)(F)F)C(F)(F)F)ccc45)C3)C2)c(C(N)=O)s1 (stereo partly drawn) [Example 116]
3. CC(C)(O)COc1ccc2c(C(=O)NC3CC4(C3)CC(Oc3nn(CC5CC5)cc3C(N)=O)C4)cnn2c1C1CC1 (stereo not drawn) [Example 5]
4. CC(C)(O)COc1ccc2c(C(=O)NC3CC4(C3)CC(Oc3nc5ncccc5cc3C(N)=O)C4)cnn2c1C1CC1 (stereo not drawn) [Example 7]
5. Cc1sc2cc(C(N)=O)c(O[C@H]3C[C@@]4(C[C@H](NC(=O)c5cnc6ccc(F)cc6c5)C4)C3)nc2c1C (stereo partly drawn) [Example 96]
6. CC(C)CC1NC(=O)N([C@H]2C[C@@]3(C[C@H](Oc4nc(C5CC5)sc4C(N)=O)C3)C2)C1=O (stereo partly drawn) [Example 10]

OUT:
1. 0.20
2. 1.85
3. 1.72
4. 0.68
5. 2.10
6. 1.44

Please state, for each entry, its recorded log10(IC50).
1. NC(=O)c1cc2c(nc1O[C@H]1C[C@@]3(C[C@H](NC(=O)c4ccc5[nH]ncc5c4)C3)C1)CCOC2 (stereo partly drawn) [Example 91]
2. Cc1nc(O[C@H]2C[C@@]3(C[C@H](NC(=O)c4nn(C(F)F)c5cc(OCC(C)(C)O)ccc45)C3)C2)c(C(N)=O)s1 (stereo partly drawn) [Example 25]

OUT:
2.52
0.81

###

- measured-on: ROCK2 (Homo sapiens (Human), UniProt O75116)
- Sequence (O75116 whole entry, species assumed): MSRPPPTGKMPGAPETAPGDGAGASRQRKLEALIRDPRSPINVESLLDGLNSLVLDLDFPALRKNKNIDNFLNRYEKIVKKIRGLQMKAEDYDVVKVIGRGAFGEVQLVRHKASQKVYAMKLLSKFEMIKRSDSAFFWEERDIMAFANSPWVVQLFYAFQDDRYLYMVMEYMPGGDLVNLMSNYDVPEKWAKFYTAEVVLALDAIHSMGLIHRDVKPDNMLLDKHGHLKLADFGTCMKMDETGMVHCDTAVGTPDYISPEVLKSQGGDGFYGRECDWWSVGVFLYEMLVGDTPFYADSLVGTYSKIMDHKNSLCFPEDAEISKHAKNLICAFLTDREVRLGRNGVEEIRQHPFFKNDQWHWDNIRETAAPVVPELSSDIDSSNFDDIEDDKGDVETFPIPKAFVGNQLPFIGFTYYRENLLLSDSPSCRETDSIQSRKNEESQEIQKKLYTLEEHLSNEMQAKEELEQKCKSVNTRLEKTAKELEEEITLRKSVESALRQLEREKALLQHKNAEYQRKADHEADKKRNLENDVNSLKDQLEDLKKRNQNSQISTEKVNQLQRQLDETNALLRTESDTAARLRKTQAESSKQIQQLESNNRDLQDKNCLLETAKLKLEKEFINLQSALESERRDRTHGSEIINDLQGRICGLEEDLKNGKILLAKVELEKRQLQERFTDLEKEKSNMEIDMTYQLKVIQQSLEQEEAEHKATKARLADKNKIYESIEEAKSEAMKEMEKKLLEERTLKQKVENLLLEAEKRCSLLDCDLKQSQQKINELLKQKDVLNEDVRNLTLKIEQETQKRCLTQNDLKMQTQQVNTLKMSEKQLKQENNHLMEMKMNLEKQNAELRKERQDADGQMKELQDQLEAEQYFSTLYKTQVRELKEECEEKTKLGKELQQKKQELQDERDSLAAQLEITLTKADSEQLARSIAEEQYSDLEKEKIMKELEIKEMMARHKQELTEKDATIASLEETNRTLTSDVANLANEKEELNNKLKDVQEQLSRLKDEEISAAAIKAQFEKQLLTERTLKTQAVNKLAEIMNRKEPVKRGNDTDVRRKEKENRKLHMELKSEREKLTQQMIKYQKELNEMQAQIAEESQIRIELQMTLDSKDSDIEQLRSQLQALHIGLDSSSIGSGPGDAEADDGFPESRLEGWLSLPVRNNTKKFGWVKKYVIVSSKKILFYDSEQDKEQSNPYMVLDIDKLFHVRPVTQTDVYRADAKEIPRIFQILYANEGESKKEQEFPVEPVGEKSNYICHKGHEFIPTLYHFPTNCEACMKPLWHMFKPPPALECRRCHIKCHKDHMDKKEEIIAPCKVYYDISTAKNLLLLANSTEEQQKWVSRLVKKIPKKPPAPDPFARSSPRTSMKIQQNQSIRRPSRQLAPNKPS
- measurement-notes: ROCK2 assay (peptide phosphorylation, LABCHIP 3000 Reader)
- Format: biochemical
- run-conditions: 5 μM ATP, 1.5 μM peptide substrate, dose-response
pIC50: −log10 of the molar value.
Classification field: condition met = pIC50 at or over 7; condition not met = pIC50 under 7.

compound	discrete-label
NC(=O)c1cn(C2CC2)nc1O[C@H]1C[C@]2(C1)C[C@H](N1C(=O)NC(Cc3ccccc3)C1=O)C2 (some centres unmarked)	condition not met
Cc1csc2cc(C(N)=O)c(O[C@H]3C[C@@]4(C[C@H](NC(=O)c5cccc(C#N)c5)C4)C3)nc12 (some centres unmarked)	condition met
Cc1nc(O[C@H]2C[C@@]3(C[C@H](NC(=O)c4cnn5cc(OCC(F)F)ccc45)C3)C2)c(C(N)=O)s1 (some centres unmarked)	condition met

IN: Exam item: decide whether the reported pIC50 for CC(C)(O)COc1ccc2c(C(=O)N[C@H]3C[C@]4(C3)C[C@H](Oc3nc5ccsc5cc3C(N)=O)C4)cnn2c1 (some centres unmarked) is at least 7.
OUT: condition met

IN: Exam item: decide whether the reported pIC50 for CC(C)(O)COc1ccc2c(C(=O)N[C@H]3C[C@]4(C3)C[C@H](Oc3nc(-c5ccccc5)sc3C(N)=O)C4)cnn2c1 (some centres unmarked) is at least 7.
OUT: condition met

IN: Exam item: decide whether the reported pIC50 for NC(=O)c1sc(C2CC2)nc1O[C@H]1C[C@@]2(C[C@H](NC(=O)c3nc(C(F)(F)F)n4cc(-c5ccc(F)nc5)ccc34)C2)C1 (some centres unmarked) is at least 7.
OUT: condition met

IN: Exam item: decide whether the reported pIC50 for Cc1c(C(=O)N[C@H]2C[C@]3(C2)C[C@H](Oc2nn(C(F)F)cc2C(N)=O)C3)cnn1-c1ccc(C#N)cc1 (some centres unmarked) is at least 7.
OUT: condition not met

IN: Exam item: decide whether the reported pIC50 for NC(=O)c1sc(C2CC2)nc1O[C@H]1C[C@]2(C1)C[C@H](N1C(=O)NC(Cc3cccnc3)C1=O)C2 (some centres unmarked) is at least 7.
OUT: condition not met

IN: Exam item: decide whether the reported pIC50 for CC(C)(O)COc1ccc2c(C(=O)N[C@H]3C[C@]4(C3)C[C@H](Oc3nn5cc(C(F)(F)F)ccc5c3C(N)=O)C4)nn(C(F)F)c2c1 (some centres unmarked) is at least 7.
OUT: condition not met

###

- measured-on: ROCK2 (Homo sapiens (Human), UniProt O75116)
property-measured: IC50
Phrase the answer as number then unit, nothing more needed.

Here's what some known entries look like.
compound	measured-on	IC50
NC(=O)c1cc2sccc2nc1O[C@H]1C[C@]2(C1)C[C@H](N1C(=O)CN(Cc3ccccc3)CC1=O)C2 (stereo partly shown)	ROCK2 (Homo sapiens (Human), UniProt O75116)	85.9 nM
Cc1nc(NCC(C)(C)O)sc1C(=O)N[C@H]1C[C@]2(C1)C[C@H](Oc1nc3c(cc1C(N)=O)COCC3)C2 (stereo partly shown)	ROCK2 (Homo sapiens (Human), UniProt O75116)	367 nM
NC(=O)c1c(O[C@H]2C[C@@]3(C[C@H](NC(=O)c4cnn5cc(OCC(F)F)ccc45)C3)C2)nn2cc(C(F)(F)F)ccc12 (stereo partly shown)	ROCK2 (Homo sapiens (Human), UniProt O75116)	1170 nM

Please state, for each entry, its recorded IC50.
1. CC(C)(O)COc1ccc2c(C(=O)N[C@H]3C[C@]4(C3)C[C@H](Oc3nn5ccc(-c6ccc(F)nc6)cc5c3C(N)=O)C4)nn(C(F)F)c2c1 (stereo partly shown)
2. CC(C)(O)COc1ccc2c(C(=O)N[C@H]3CC4(C3)C[C@H](Oc3c(C(N)=O)cnn3CCCN)C4)cnn2c1C1CC1 (stereo partly shown)
3. Cn1cc(C(N)=O)c(O[C@H]2C[C@@]3(C[C@H](NC(=O)c4cnn5c(C6CC6)c(OCC(C)(C)O)ccc45)C3)C2)n1 (stereo partly shown)
4. CC(C)CC1NC(=O)N([C@H]2C[C@@]3(C[C@H](Oc4nc(C5CC5)sc4C(N)=O)C3)C2)C1=O (single isomer, unassigned) [Example 111]
5. Cn1ncc2cc(C(N)=O)c(O[C@H]3C[C@@]4(C[C@H](NC(=O)c5cnc6c(cnn6CC(F)F)c5)C4)C3)nc21 (stereo partly shown)
6. Cc1c(C(=O)N[C@H]2C[C@]3(C2)C[C@H](Oc2nc4c(cnn4C)cc2C(N)=O)C3)cnn1-c1ccc(-c2cnn(CC(F)F)c2)cc1 (stereo partly shown)
7. CC(C)(O)COc1ccc2c(C(=O)N[C@H]3C[C@]4(C3)C[C@H](Oc3nn5cc(-c6ccc(F)nc6)ccc5c3C(N)=O)C4)nn(C(F)F)c2c1 (stereo partly shown)

OUT:
1: 112 nM; 2: 551 nM; 3: 14.1 nM; 4: 106 nM; 5: 10.9 nM; 6: 4.6 nM; 7: 390 nM

Please state, for each entry, its recorded IC50.
1. Cn1ncc2cc(C(N)=O)c(O[C@H]3C[C@@]4(C[C@H](NC(=O)c5cccc(C#N)c5)C4)C3)nc21 (stereo partly shown)
2. NC(=O)c1cn(-c2ccccc2)nc1O[C@H]1C[C@@]2(C[C@H](NC(=O)c3cnn4cc(OCCC(F)(F)F)ccc34)C2)C1 (stereo partly shown)
3. Cc1c(C(=O)N[C@H]2C[C@]3(C2)C[C@H](Oc2nn4cc(F)ccc4c2C(N)=O)C3)cnn1-c1ccc(C#N)cc1 (stereo partly shown)
4. CC(C)(O)COc1ccc2c(C(=O)N[C@H]3C[C@]4(C3)C[C@H](Oc3nc(-c5ccccc5)sc3C(N)=O)C4)cnn2c1C1CC1 (stereo partly shown)
5. CC(C)(O)COc1ccc2c(C(=O)N[C@H]3C[C@]4(C3)C[C@H](Oc3nn5ccc(-c6ccccc6)cc5c3C(N)=O)C4)nn(C(F)F)c2c1 (stereo partly shown)
6. N#Cc1cccc(C(=O)NC2CC3(C2)CC(Oc2nc4ccsc4cc2C(N)=O)C3)c1 (stereo not shown)

OUT:
1: 8 nM; 2: 136 nM; 3: 702 nM; 4: 13.4 nM; 5: 150 nM; 6: 22.2 nM

###

Here's what we have: pIC50 numbers for ROCK2 (Homo sapiens (Human)).
Numbers only, as −log10 of the molar value.

molecule	pIC50
Cc1c(C(=O)N[C@H]2C[C@]3(C2)C[C@H](Oc2nn(C4CC4)cc2C(N)=O)C3)cnn1-c1ccc(Cl)cc1 (stereo partly drawn) [Example 51]	7.35
COc1ccc2c(C(N)=O)c(O[C@H]3C[C@@]4(C[C@H](NC(=O)c5nn(C(F)F)c6cc(OCC(C)(C)O)ccc56)C4)C3)nn2c1 (stereo partly drawn) [Example 124]	7.04
Cc1c(C(=O)N[C@H]2C[C@]3(C2)C[C@H](Oc2nc(C4CC4)sc2C(N)=O)C3)cnn1-c1ccc(F)cc1F (stereo partly drawn) [Example 67]	6.85

Please state, for each entry, its recorded pIC50.
1. N#Cc1cc(C(=O)N[C@H]2C[C@]3(C2)C[C@H](Oc2nn(-c4ccccc4)cc2C(N)=O)C3)cc(-c2cnn(C(F)F)c2)c1 (stereo partly drawn) [Example 41]
2. Cc1c(C(=O)N[C@H]2C[C@]3(C2)C[C@H](Oc2nc(C4CC4)sc2C(N)=O)C3)cnn1-c1ccccc1 (stereo partly drawn) [Example 68]
3. Cn1cc(C(N)=O)c(O[C@H]2C[C@@]3(C[C@H](NC(=O)c4nn(C(F)F)c5cc(OCC(C)(C)O)ccc45)C3)C2)n1 (stereo partly drawn) [Example 36]

OUT:
1: 7.25; 2: 6.97; 3: 7.65
